# Tested on: L1210
# Procedure details: Inhibition of RNA synthesis in mouse L1210 cells
# Format: functional
# Reported conditions: read-out: ED50 (the source's name)
Recorded endpoint: EC50 (nM)
Response body: numeric value in nM, unit text excluded.

Sample CCN(CC)[C@H]1C[C@H](O[C@H]2C[C@](O)(C(C)=O)Cc3c(O)c4c(c(O)c32)C(=O)c2c(OC)cccc2C4=O)O[C@@H](C)[C@H]1O.Cl ; EC50 observed: 130

Sample COc1cccc2c1C(=O)c1c(O)c3c(c(O)c1C2=O)C[C@@](O)(C(=O)CO)C[C@@H]3O[C@H]1C[C@H](N(C)C)[C@H](O)[C@H](C)O1.Cl ; EC50 observed: 120

Sample CCCCCCCCCCN[C@H]1C[C@H](O[C@H]2C[C@](O)(C(C)=O)Cc3c(O)c4c(c(O)c32)C(=O)c2c(OC)cccc2C4=O)O[C@@H](C)[C@H]1O.Cl ; EC50 observed: 2600

Sample COc1cccc2c1C(=O)c1c(O)c3c(c(O)c1C2=O)C[C@@](O)(C(C)=O)C[C@@H]3O[C@H]1C[C@H](N)[C@H](O)[C@H](C)O1 [DAUNORUBICIN] ; EC50 observed: 330

Sample COc1cccc2c1C(=O)c1c(O)c3c(c(O)c1C2=O)C[C@@](O)(C(O)CO)C[C@@H]3O[C@H]1C[C@H](N2CCCCC2)[C@H](O)[C@H](C)O1.Cl (stereo partly specified) ; EC50 observed: 100

Sample COc1cccc2c1C(=O)c1c(O)c3c(c(O)c1C2=O)C[C@@](O)(C(=O)CO)C[C@@H]3O[C@H]1C[C@H](N)[C@H](O)[C@H](C)O1 [DOXORUBICIN] ; EC50 observed: 580

###

# Test system: L1210
# Procedure details: Selectivity ratio of ED50 for inhibition of DNA synthesis in mouse L1210 cells to ED50 for inhibition of RNA synthesis in mouse L1210 cells
# Assay type: functional
Binning rule for recorded Ratio ED50: bottom range = under 5, center range = from 5 up to 7, top range = 7 and over

Asked: Please indicate the class for CCCCCCCCCCN[C@H]1C[C@H](O[C@H]2C[C@](O)(C(C)=O)Cc3c(O)c4c(c(O)c32)C(=O)c2c(OC)cccc2C4=O)O[C@@H](C)[C@H]1O.Cl based on its Ratio ED50.
Given back: bottom range

Asked: Please indicate the class for COc1cccc2c1C(=O)c1c(O)c3c(c(O)c1C2=O)C[C@@](O)(C(=O)CO)C[C@@H]3O[C@H]1C[C@H](N)[C@H](O)[C@H](C)O1 based on its Ratio ED50.
Given back: bottom range

Asked: Please indicate the class for COc1cccc2c1C(=O)c1c(O)c3c(c(O)c1C2=O)C[C@@](O)(C(C)=O)C[C@@H]3O[C@H]1C[C@H](N(Cc2ccccc2)Cc2ccccc2)[C@H](O)[C@H](C)O1.Cl based on its Ratio ED50.
Given back: top range

Asked: Please indicate the class for COc1cccc2c1C(=O)c1c(O)c3c(c(O)c1C2=O)C[C@@](O)(C(O)CO)C[C@@H]3O[C@H]1C[C@H](NCc2ccccc2)[C@H](O)[C@H](C)O1.Cl (stereo partly specified) based on its Ratio ED50.
Given back: bottom range

Asked: Please indicate the class for CCN(CC)[C@H]1C[C@H](O[C@H]2C[C@](O)(C(C)=O)Cc3c(O)c4c(c(O)c32)C(=O)c2c(OC)cccc2C4=O)O[C@@H](C)[C@H]1O.Cl based on its Ratio ED50.
Given back: center range

Asked: Please indicate the class for COc1cccc2c1C(=O)c1c(O)c3c(c(O)c1C2=O)C[C@@](O)(C(C)O)C[C@@H]3O[C@H]1C[C@H](NCc2ccccc2)[C@H](O)[C@H](C)O1.Cl (stereo partly specified) based on its Ratio ED50.
Given back: center range

Asked: Please indicate the class for COc1cccc2c1C(=O)c1c(O)c3c(c(O)c1C2=O)C[C@@](O)(C(=O)CO)C[C@@H]3O[C@H]1C[C@H](N(C)C)[C@H](O)[C@H](C)O1.Cl based on its Ratio ED50.
Given back: center range

Asked: Please indicate the class for COc1cccc2c1C(=O)c1c(O)c3c(c(O)c1C2=O)C[C@@](O)(C(=O)CO)C[C@@H]3O[C@H]1C[C@H](N2CCCCC2)[C@H](O)[C@H](C)O1.Cl based on its Ratio ED50.
Given back: top range

Asked: Please indicate the class for COc1cccc2c1C(=O)c1c(O)c3c(c(O)c1C2=O)C[C@@](O)(C(C)=O)C[C@@H]3O[C@H]1C[C@H](NCc2ccccc2)[C@H](O)[C@H](C)O1.Cl based on its Ratio ED50.
Given back: top range

Asked: Please indicate the class for COc1cccc2c1C(=O)c1c(O)c3c(c(O)c1C2=O)C[C@@](O)(C(C)O)C[C@@H]3O[C@H]1C[C@H](N(Cc2ccccc2)Cc2ccccc2)[C@H](O)[C@H](C)O1.Cl (stereo partly specified) based on its Ratio ED50.
Given back: top range

###

For each entry below, report its EC50 value.
# Test system: L1210
# Procedure details: Inhibition of RNA synthesis in mouse L1210 cells
# Format: functional
# Reported conditions: read-out: ED50 (the source's name)
Response body: numeric value in µM, unit text excluded.

Sample CCCCCCCCCCN(CCCCCCCCCC)[C@H]1C[C@H](O[C@H]2C[C@](O)(C(C)=O)Cc3c(O)c4c(c(O)c32)C(=O)c2c(OC)cccc2C4=O)O[C@@H](C)[C@H]1O.Cl ; EC50 observed: 130

Sample COc1cccc2c1C(=O)c1c(O)c3c(c(O)c1C2=O)C[C@@](O)(C(C)=O)C[C@@H]3O[C@H]1C[C@H](N(Cc2ccccc2)Cc2ccccc2)[C@H](O)[C@H](C)O1.Cl ; EC50 observed: 10

Sample CCN(CC)[C@H]1C[C@H](O[C@H]2C[C@](O)(C(=O)CO)Cc3c(O)c4c(c(O)c32)C(=O)c2c(OC)cccc2C4=O)O[C@@H](C)[C@H]1O.Cl ; EC50 observed: 0.21

###

For each entry below, report its Ratio ED50 value.
# Test system: L1210
# Procedure details: Selectivity ratio of ED50 for inhibition of DNA synthesis in mouse L1210 cells to ED50 for inhibition of RNA synthesis in mouse L1210 cells
# Format: functional
The answer should be written as a number, with no unit following it.

Sample COc1cccc2c1C(=O)c1c(O)c3c(c(O)c1C2=O)C[C@@](O)(C(=O)CO)C[C@@H]3O[C@H]1C[C@H](N(Cc2ccccc2)Cc2ccccc2)[C@H](O)[C@H](C)O1.Cl ; Ratio ED50 observed: 22.8

Sample COc1cccc2c1C(=O)c1c(O)c3c(c(O)c1C2=O)C[C@@](O)(C(O)CO)C[C@@H]3O[C@H]1C[C@H](N2CCCCC2)[C@H](O)[C@H](C)O1.Cl (stereo partly drawn) ; Ratio ED50 observed: 7.2

Sample CCN(CC)[C@H]1C[C@H](O[C@H]2C[C@](O)(C(=O)CO)Cc3c(O)c4c(c(O)c32)C(=O)c2c(OC)cccc2C4=O)O[C@@H](C)[C@H]1O.Cl ; Ratio ED50 observed: 3.3

###

# Test system: L1210
# Procedure details: Inhibition of RNA synthesis in mouse L1210 cells
# Assay type: functional
# Reported conditions: read-out: ED50 (the source's name)
Recorded endpoint: pEC50
Please keep in mind that pEC50 is minus log10 of the molar concentration; only the number is needed.

Sample COc1cccc2c1C(=O)c1c(O)c3c(c(O)c1C2=O)C[C@@](O)(C(O)CO)C[C@@H]3O[C@H]1C[C@H](NCc2ccccc2)[C@H](O)[C@H](C)O1.Cl (stereo partly specified) ; pEC50 observed: 6.54

Sample COc1cccc2c1C(=O)c1c(O)c3c(c(O)c1C2=O)C[C@@](O)(C(C)=O)C[C@@H]3O[C@H]1C[C@H](NCc2ccccc2)[C@H](O)[C@H](C)O1.Cl ; pEC50 observed: 6.77

Sample COc1cccc2c1C(=O)c1c(O)c3c(c(O)c1C2=O)C[C@@](O)(C(=O)CO)C[C@@H]3O[C@H]1C[C@H](NCc2ccccc2)[C@H](O)[C@H](C)O1.Cl ; pEC50 observed: 7.05

Sample COc1cccc2c1C(=O)c1c(O)c3c(c(O)c1C2=O)C[C@@](O)(C(C)=O)C[C@@H]3O[C@H]1C[C@H](N(C)C)[C@H](O)[C@H](C)O1.Cl ; pEC50 observed: 7.19

Sample COc1cccc2c1C(=O)c1c(O)c3c(c(O)c1C2=O)C[C@@](O)(C(C)=O)C[C@@H]3O[C@H]1C[C@H](NC(C)C)[C@H](O)[C@H](C)O1.Cl ; pEC50 observed: 6.49

Sample COc1cccc2c1C(=O)c1c(O)c3c(c(O)c1C2=O)C[C@@](O)(C(=O)CO)C[C@@H]3O[C@H]1C[C@H](N(Cc2ccccc2)Cc2ccccc2)[C@H](O)[C@H](C)O1.Cl ; pEC50 observed: 5.32
